Reference for the values: patent US20060166316A1

Target: mmPDE10A7 (Mus musculus, UniProt Q8CA95, M75I)
Construct: Full-length mmPDE10A7 cDNA cloned in the pENTR vector was recombined to pDEST™8; made in house; host or cells: Sf9 insect cells (baculovirus, pDEST8 / DH10BAC); used as crude cell lysate supernatant, dialysed for IMAP
Sequence (Q8CA95 with tags, fused parts or gaps M75I): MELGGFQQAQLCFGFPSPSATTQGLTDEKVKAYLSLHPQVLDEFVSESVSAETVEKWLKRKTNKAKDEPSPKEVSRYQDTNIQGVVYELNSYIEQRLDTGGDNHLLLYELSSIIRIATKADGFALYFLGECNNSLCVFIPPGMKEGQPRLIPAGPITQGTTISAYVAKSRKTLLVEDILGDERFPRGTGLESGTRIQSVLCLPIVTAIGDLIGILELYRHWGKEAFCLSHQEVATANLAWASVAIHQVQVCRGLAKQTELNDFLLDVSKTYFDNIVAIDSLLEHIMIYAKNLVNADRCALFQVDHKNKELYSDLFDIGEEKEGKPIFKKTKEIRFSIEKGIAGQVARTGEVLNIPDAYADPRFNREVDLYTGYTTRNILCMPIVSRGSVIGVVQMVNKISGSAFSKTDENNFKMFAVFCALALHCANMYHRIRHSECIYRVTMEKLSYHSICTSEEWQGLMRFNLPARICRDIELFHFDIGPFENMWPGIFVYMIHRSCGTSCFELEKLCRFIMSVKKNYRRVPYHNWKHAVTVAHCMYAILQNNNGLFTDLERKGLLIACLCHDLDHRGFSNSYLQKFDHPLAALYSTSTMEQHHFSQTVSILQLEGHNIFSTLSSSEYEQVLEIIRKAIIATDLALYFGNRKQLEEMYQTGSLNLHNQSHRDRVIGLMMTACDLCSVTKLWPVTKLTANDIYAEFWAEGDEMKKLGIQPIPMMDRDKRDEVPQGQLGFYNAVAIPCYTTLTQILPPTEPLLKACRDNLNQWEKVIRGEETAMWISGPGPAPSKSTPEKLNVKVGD
Assay: IMAP fluorescence polarization compound inhibition assay
Assay type: biochemical
Conditions: IC50, fluorescein labeled cAMP substrate; recombinant mmPDE10A7 in sf9 cell lysate
Procedure: Full-length mmPDE10A7 cDNA cloned in the pENTR vector was recombined to pDEST™8 by clonase in DH5α competent bacteria (Invitrogen). DH10BAC, the competent bacteria containing baculovirus genome, was then transformed with the pDEST™8-mmPDE10A7. […] An IMAP Assay kit (Molecular Device) was used to assess enzyme properties of mmPDE10A7. […] Then, the plates were counted in Analyst GT (Molecular Device) for fluorescence polarization. The data were analyzed with SoftMax Pro. […]
observed property: pIC50
Interpret pIC50 as the negative base-10 log of the concentration measured in mol/L.

Query: Would you kindly share the measured pIC50 for COc1ccc(Cc2nccc3cc(OC)c(OC)cc23)cc1OC ?
Reply: 7.36
